Source: the antibiotic and cytotoxicity screens of Wong et al. (2023)

Test system: HepG2
Test: cytotoxicity call (relative viability < 0.9)
Conditions: 10 µM
The whole screen tested about 39,000 compounds, of which about 3,300 (8.5%) were called active. Shown is part of a subset that was picked to be rich in actives.
experimentalEndpoint: cytotoxicity call

>  <compoundSmiles>
CO[C@H]1C[C@@H]2CC[C@@H](C)[C@@](O)(O2)C(=O)C(=O)N2CCCC[C@H]2C(=O)O[C@H]([C@H](C)C[C@@H]2CC[C@@H](OC(=O)C(C)(CO)CO)[C@H](OC)C2)CC(=O)[C@H](C)/C=C(\C)[C@@H](O)[C@@H](OC)C(=O)[C@H](C)C[C@H](C)/C=C/C=C/C=C/1C

>  <result>
inactive

$$$$
>  <compoundSmiles>
COc1ccc(CN(C)C[C@@H]2OCCCC[C@H](C)Oc3ccc(NC(=O)Nc4ccccc4)cc3C(=O)N([C@@H](C)CO)C[C@H]2C)cc1

>  <result>
inactive

$$$$
>  <compoundSmiles>
CC(C)(C)NC(=O)[C@@H]1CN(Cc2cccnc2)CCN1C[C@@H](O)C[C@@H](Cc1ccccc1)C(=O)N[C@@H]1c2ccccc2C[C@@H]1O

>  <result>
inactive

$$$$

----------
System: HepG2
Experiment: cytotoxicity call (relative viability < 0.9)
Settings: 10 µM
Hit rate of the full screen: of about 39,000 compounds, about 3,300 (8.5%) were called active. The sample as a whole holds a higher share of actives than the screen did.
Could you please pick one outcome from this set? active, inactive

Example cases with answers are listed next.
>  <compoundSmiles>
C[C@@H]1CCCCO[C@H](CN(C)S(=O)(=O)c2ccc(Cl)cc2)[C@@H](C)CN([C@H](C)CO)C(=O)c2cc(NC(=O)Nc3ccc(C(F)(F)F)cc3)ccc2O1

>  <className>
active

$$$$
>  <compoundSmiles>
C[C@H]1CN([C@@H](C)CO)C(=O)Cc2cc(NS(=O)(=O)c3ccc(F)cc3)ccc2O[C@@H]1CN(C)Cc1ccncc1

>  <className>
inactive

$$$$
>  <compoundSmiles>
C[C@@H]1CN([C@H](C)CO)C(=O)c2cc(NC(=O)Nc3ccc(C(F)(F)F)cc3)ccc2O[C@@H](C)CCCCO[C@H]1CN(C)S(=O)(=O)c1ccc(Cl)cc1

>  <className>
inactive

$$$$

Now let's try a different one.
### Prompt Assay outcome for `Cc1ccc(S(=O)(=O)N[C@H]2C=C[C@@H](CC(=O)NCCN3CCCCC3)O[C@@H]2CO)cc1` : what was it?
### Response inactive

----------
System: HepG2
Experiment: cytotoxicity call (relative viability < 0.9)
Conditions: 10 µM
The campaign covered roughly 39,000 compounds. About 3,300 (8.5%) were called active. The entries come from a sample that favours actives as a whole.
Could you please pick one outcome from this set? yes = active, no = inactive

Example cases with answers are listed next.
>  <compoundSmiles>
O=C(C[C@H]1C[C@H]2c3cc(NC(=O)C4CCOCC4)ccc3O[C@H]2[C@@H](CO)O1)NCCN1CCCCC1

>  <className>
no

$$$$
>  <compoundSmiles>
COc1ccc2c(c1)c(CC(=O)OCC(=O)O)c(C)n2C(=O)c1ccc(Cl)cc1

>  <className>
no

$$$$
>  <compoundSmiles>
CO[C@@H]1CN(C)C(=O)c2ccc(NS(=O)(=O)CC(F)(F)F)cc2OC[C@@H](C)N(Cc2nccs2)C[C@H]1C

>  <className>
no

$$$$
>  <compoundSmiles>
O=C(c1ccccc1Cl)n1c2ccccc2c2ccccc21

>  <className>
yes

$$$$
>  <compoundSmiles>
CN1C(=O)c2cc(NC(=O)c3cnccn3)ccc2OC[C@H]2O[C@H](CC(=O)N[C@H]3CCN(Cc4ccccc4)C3)CC[C@@H]21

>  <className>
no

$$$$

### Prompt Assay outcome for `O=C(c1ccc(Cl)cc1)n1c2ccccc2c2ccccc21` : what was it?
### Response yes

### Prompt Assay outcome for `COc1ccc(C#Cc2ccc3c(c2)[C@H]2[C@H](CCN2C(=O)Nc2ccc(C(F)(F)F)cc2)[C@H](CO)N3C)cc1` : what was it?
### Response no

### Prompt Assay outcome for `COc1ccc2c(c1)c(CC(=O)O)c(C)n2C(=O)c1ccc(Cl)cc1` : what was it?
### Response no

### Prompt Assay outcome for `C[C@@H]1CN([C@H](C)CO)C(=O)c2cccc(NC(=O)c3ccc(-c4nccs4)cc3)c2O[C@@H]1CN(C)C(=O)Nc1cccc2ccccc12` : what was it?
### Response no

----------
Test system: HepG2
Experiment: cytotoxicity call (relative viability < 0.9)
Conditions: 10 µM
Out of some 39,000 compounds screened, about 3,300 (8.5%) were called active. The sample holds actives, similar compounds and a random draw of the others, so the mix is not that of the screen.
Could you please pick one outcome from this set? 1 (yes) (active), 0 (no) (inactive)

>  <compoundSmiles>
COc1ccc(NC(=O)Nc2ccc3c(c2)C(=O)N([C@H](C)CO)C[C@H](C)[C@H](CN(C)Cc2ccc(Oc4ccccc4)cc2)O3)cc1

>  <className>
0 (no)

$$$$
>  <compoundSmiles>
COc1ccc(NC(=O)Nc2ccc3c(c2)C(=O)N([C@H](C)CO)C[C@@H](C)[C@@H](CN(C)Cc2ccc(Oc4ccccc4)cc2)O3)cc1

>  <className>
0 (no)

$$$$
>  <compoundSmiles>
CCc1nc(C(N)=O)c(Nc2ccc(N3CCC(N4CCN(C)CC4)CC3)c(OC)c2)nc1NC1CCOCC1

>  <className>
1 (yes)

$$$$

### Prompt Assay outcome for `Cc1noc(C)c1NC(=O)Nc1ccc2c(c1)C(=O)N([C@H](C)CO)C[C@H](C)[C@H](CN(C)S(=O)(=O)c1ccc(F)cc1)OCCCC[C@H](C)O2` : what was it?
### Response 0 (no)

### Prompt Assay outcome for `Cc1ccc(CNc2ccc3c(c2)ncn3C2CCCCC2)cc1` : what was it?
### Response 0 (no)

### Prompt Assay outcome for `C[C@H](CO)N1C[C@H](C)[C@H](CN(C)Cc2ccccc2)OCCCC[C@H](C)Oc2ccc(NS(=O)(=O)c3ccccc3)cc2C1=O` : what was it?
### Response 0 (no)

### Prompt Assay outcome for `O=C(C[C@H]1C=C[C@@H](NC(=O)CN2CCOCC2)[C@@H](CO)O1)NCCc1ccccc1` : what was it?
### Response 0 (no)

### Prompt Assay outcome for `C[C@@H]1CN([C@@H](C)CO)S(=O)(=O)c2ccc(-c3ccncc3)cc2O[C@@H]1CN(C)Cc1ccc(Oc2ccccc2)cc1` : what was it?
### Response 0 (no)

### Prompt Assay outcome for `CCC(=O)Nc1ccc2c(c1)OC[C@@H](C)N(S(=O)(=O)c1cn(C)cn1)C[C@@H](C)[C@H](OC)CN(C)C2=O` : what was it?
### Response 0 (no)

### Prompt Assay outcome for `Cc1ccc(S(=O)(=O)Nc2ccc3c(c2)C(=O)N([C@H](C)CO)C[C@@H](C)[C@H](CN(C)Cc2ccccc2)OCCCC[C@H](C)O3)cc1` : what was it?
### Response 1 (yes)

### Prompt Assay outcome for `COCC(=O)N1[C@@H]2c3ccc(C4=CCCC4)c(=O)n3C[C@@H]2[C@@H](CO)[C@@H]1C(=O)N1CCN(C)CC1` : what was it?
### Response 0 (no)

----------
System: HepG2
Test: cytotoxicity call (relative viability < 0.9)
Conditions: 10 µM
Hit rate of the full screen: of about 39,000 compounds, about 3,300 (8.5%) were called active. What follows is part of a selection rich in actives, with near analogues and random picks from the rest.
experimentalEndpoint: cytotoxicity call

>  <compoundSmiles>
C[C@@H]1CCCCO[C@H](CN(C)CC2CCCCC2)[C@H](C)CN([C@@H](C)CO)C(=O)c2cc(NC(=O)Nc3ccc4c(c3)OCO4)ccc2O1

>  <systemName>
HepG2

>  <cytotoxicity call>
active

$$$$
>  <compoundSmiles>
C[C@@H]1CN([C@@H](C)CO)C(=O)Cc2cc(NS(=O)(=O)c3ccc(F)cc3)ccc2O[C@@H]1CN(C)S(=O)(=O)c1cn(C)cn1

>  <systemName>
HepG2

>  <cytotoxicity call>
inactive

$$$$
>  <compoundSmiles>
C[C@H]1CCCCO[C@@H](CN(C)CC2CCCCC2)[C@@H](C)CN([C@@H](C)CO)C(=O)c2cc(NC(=O)Nc3ccc4c(c3)OCO4)ccc2O1

>  <systemName>
HepG2

>  <cytotoxicity call>
active

$$$$
>  <compoundSmiles>
C[C@@H]1O[C@@H](O[C@@H]2[C@@H](O)[C@H](C)O[C@@H](OC[C@H]3O[C@@H](Oc4c(-c5ccc(O)cc5)oc5cc(O)cc(O)c5c4=O)[C@H](O)[C@@H](O)[C@H]3O)[C@@H]2O)[C@H](O)[C@H](O)[C@H]1O

>  <systemName>
HepG2

>  <cytotoxicity call>
inactive

$$$$

Fill in cytotoxicity call for each of the 2 molecules listed.
1. C[C@@H]1CN([C@H](C)CO)C(=O)c2cc(Br)cnc2O[C@H]1CN(C)C(=O)Nc1ccc(F)cc1
2. C[C@H](CO)N1C[C@H](C)[C@@H](CN(C)CC2CCCCC2)OCCCC[C@H](C)Oc2ccc(NC(=O)Nc3ccc4c(c3)OCO4)cc2C1=O

### Response
inactive
inactive
